# assay-method-text: Human HepG2 cell viability assay in 384 well format
# Assay type: toxicity, cell-based
# Design: dose 125 nL, time 70.5 hour; concentration not given beside the values
# settings: HepG2 cells, read-out: Inhibition
observation-type: cytotoxicity at 70.5 h (%)
// units = %; emit number, no label

For record Clc1ccc(CN2CCCC2Cn2cncn2)c2ncccc12 (stereo unspecified) the listed cytotoxicity at 70.5 h is -2.37

For record "O=c1[nH]c(NC2CCCC2)nc2nccc(-c3cccs3)c12" the listed cytotoxicity at 70.5 h is -4.19

For record CC(C1CCN(C(=O)c2coc(CN3CCOCC3)c2)CC1)N(C)C (stereo unspecified) the listed cytotoxicity at 70.5 h is -1.57

For record "Cn1nc(CNC(=O)C2CCCC2)cc1C1CC1" the listed cytotoxicity at 70.5 h is 38.9

For record "CCCN(C(=O)CN1CCn2c(nnc2C2CC2)C1)C1=CCCCC1" the listed cytotoxicity at 70.5 h is -13.5

For record CN(C)CCNCCC(Cc1ccccc1)C1CCOC(C)(C)C1 (stereo unspecified) the listed cytotoxicity at 70.5 h is -8.7

For record "CCCN(Cc1cnn(C)c1)S(=O)(=O)c1ccc(F)c(C#N)c1" the listed cytotoxicity at 70.5 h is -7.37

For record "COCCNc1cc(-c2ccccc2C(N)=O)c2cc[nH]c2n1" the listed cytotoxicity at 70.5 h is -10.4

For record COc1ccc(CCNC2CCCN(c3ccc(C)nn3)C2)cc1 (stereo unspecified) the listed cytotoxicity at 70.5 h is -7.85

For record "CC(C)[C@@H]1CN(Cc2c[nH]nc2-c2ccc(F)cc2)C[C@H]1NS(C)(=O)=O" the listed cytotoxicity at 70.5 h is -2.13

For record "Cc1ccc(OCCNC(=O)C2CCOCC2)c(C)c1" the listed cytotoxicity at 70.5 h is 35.7

----------
Could you please report measured cytotoxicity at 70.5 h for the items listed next?
# assay-method-text: Human HepG2 cell viability assay in 384 well format
# Format: toxicity, cell-based
# Parameters: dose 125 nL, time 70.5 hour; concentration not given beside the values
# settings: HepG2 cells, read-out: Inhibition
// units = %; emit number, no label

For record "CN(CC(N)=O)CC(=O)N(C1=CCCCC1)C1CC1" the listed cytotoxicity at 70.5 h is -10.7

For record "CCN(C(=O)CN1CCC(c2cc3ccccc3[nH]2)CC1)C1CC1" the listed cytotoxicity at 70.5 h is 4.18

For record "CN1CCC(N2CCOC[C@H]2c2nc(C(C)(C)C)c[nH]2)CC1" the listed cytotoxicity at 70.5 h is 0.765

For record "CCCNC(=O)N1CCc2ccc(S(=O)(=O)N3CCCC3)cc2C1" the listed cytotoxicity at 70.5 h is -10.1

For record "CN(C)c1ccc(CNC2(c3ccc(F)cc3)CCOCC2)cc1F" the listed cytotoxicity at 70.5 h is -7.63

For record "O=C1CC[C@H]2CN(c3ncc(F)cn3)CC[C@H]2N1CCc1ccccc1" the listed cytotoxicity at 70.5 h is -6.02

----------
Could you please report measured cytotoxicity at 70.5 h for the items listed next?
# assay-method-text: Human HepG2 cell viability assay in 384 well format
# Type: toxicity, cell-based
# Design: dose 125 nL, time 70.5 hour; concentration not given beside the values
# settings: HepG2 cells, read-out: Inhibition
// units = %; emit number, no label

For record "O=C(Cc1ccsc1)N1CCn2cc(CN3CCCC3)nc2C1" the listed cytotoxicity at 70.5 h is -5.43

For record CCc1nc(CN2CCCC2c2c(C)nn(C)c2OC)no1 (stereo unspecified) the listed cytotoxicity at 70.5 h is -3.81

For record "COc1ccc(Cc2cccc(C3CCN(C)CC3)n2)cc1" the listed cytotoxicity at 70.5 h is -6.68

For record "CC(C)(O)CN1CCN(C(=O)c2cccnc2O)CC1" the listed cytotoxicity at 70.5 h is -2.58

For record "Cc1cccc(OCC(=O)NS(=O)(=O)Cc2ccccc2)c1" the listed cytotoxicity at 70.5 h is -5.52

For record O=C(Nc1cccnc1)NC(CCCO)c1ccccc1 (stereo unspecified) the listed cytotoxicity at 70.5 h is -16

----------
# assay-method-text: Human HepG2 cell viability assay in 384 well format
# Format: toxicity, cell-based
# Parameters: dose 125 nL, time 70.5 hour; concentration not given beside the values
# settings: HepG2 cells, read-out: Inhibition
observation-type: cytotoxicity at 70.5 h (%)
// units = %; emit number, no label

For record "CC1=N[C@@]2(CC[C@@H]3CN(S(=O)(=O)C4CC4)C[C@@H]32)C(=O)N1CC(C)C" the listed cytotoxicity at 70.5 h is 10.8

For record "Cc1cc(C)nc(C2CCN(C(=O)CO)CC2)n1" the listed cytotoxicity at 70.5 h is -6.07

For record CC(Cc1ccco1)NC(=O)C1=NN(c2ccccc2)C(=O)CC1 (stereo not drawn) the listed cytotoxicity at 70.5 h is 16.9

For record "COCCCNC(=O)CN(C)C(=O)c1ccccc1O" the listed cytotoxicity at 70.5 h is -3.02

For record CNc1cccc(C2CCCN(C(=O)Cc3ccccc3)C2)n1 (stereo not drawn) the listed cytotoxicity at 70.5 h is -7.78

For record COCC1c2nnn(C)c2CCN1C(=O)Cc1ccc2c(c1)OCO2 (stereo not drawn) the listed cytotoxicity at 70.5 h is 9.52

For record "CN(C)C(=O)CCNC(=O)Nc1sc2ccccc2c1Cl" the listed cytotoxicity at 70.5 h is -7.68

For record "Cc1ccc(NC2CCN(C(=O)CCc3nccs3)CC2)nn1" the listed cytotoxicity at 70.5 h is -12.3

For record CC(NC(=O)NCc1cscn1)c1ccc(N2CCOCC2)cc1 (stereo not drawn) the listed cytotoxicity at 70.5 h is -0.548

For record "CN(C)CCOCc1nnc2n1CCN(Cc1ccoc1)CC2" the listed cytotoxicity at 70.5 h is 36.2

For record "COc1cccc(C(=O)N2C[C@@H](CN(C)CCO)[C@@H](CO)C2)c1C" the listed cytotoxicity at 70.5 h is 23.8

For record "CCS(=O)(=O)N1CCC[C@]2(C(=O)N(C)C)CN(c3ncccn3)C[C@@H]2C1" the listed cytotoxicity at 70.5 h is 11.9

For record "Cc1ccc([C@]2(O)CC[C@H]3CN(Cc4cccc(F)c4F)C[C@H]32)nc1" the listed cytotoxicity at 70.5 h is 5.11

For record COc1ccc(NC(=O)N2CCCC2c2ccco2)cc1OC (stereo not drawn) the listed cytotoxicity at 70.5 h is -0.202

For record "N#Cc1ccc(CS(=O)(=O)NC(=O)c2ccc3c(c2)COC3)cc1" the listed cytotoxicity at 70.5 h is 14.9

For record "Cn1cccc1CN1CCc2c(nc(-c3ccccn3)[nH]c2=O)C1" the listed cytotoxicity at 70.5 h is -2.89

For record CC(=O)N1CCN(Cc2ccc3c(c2)OCCO3)CC(O)C1 (stereo not drawn) the listed cytotoxicity at 70.5 h is -10.7

For record O=C(C1CCCC1)N1CCCC1c1nnc2n1CCCCC2 (stereo not drawn) the listed cytotoxicity at 70.5 h is 1.94

For record Cc1nc(CN2CCN(C(=O)C(C(C)C)n3cncn3)CC2)cs1 (stereo not drawn) the listed cytotoxicity at 70.5 h is -1.55

For record "COCCO[C@H]1CCN(C(=O)c2cccnc2)[C@H]1Cc1cnn(C)c1" the listed cytotoxicity at 70.5 h is -96.2

For record CCNc1ncc(C(=O)NC(CC)c2ccnn2C)cn1 (stereo not drawn) the listed cytotoxicity at 70.5 h is -5.36

For record Cc1cccc(C(C(=O)N(C)Cc2cc(C)no2)N(C)C)c1 (stereo not drawn) the listed cytotoxicity at 70.5 h is -7.53

For record Cc1nc(C)n(CC(=O)N2CCCC(c3nc(C)n4c(C)csc34)C2)n1 (stereo not drawn) the listed cytotoxicity at 70.5 h is 0.595

----------
Could you please report measured cytotoxicity at 70.5 h for the items listed next?
# assay-method-text: Human HepG2 cell viability assay in 384 well format
# Format: toxicity, cell-based
# Parameters: dose 125 nL, time 70.5 hour; concentration not given beside the values
# settings: HepG2 cells, read-out: Inhibition
// units = %; emit number, no label

For record CC(NC(=O)Nc1nccs1)C(=O)NC1CCCC1 (centres undefined) the listed cytotoxicity at 70.5 h is 0.896

For record "CCn1cc(CN2CCCN(C(=O)c3cccc(C#N)c3)CC2)cn1" the listed cytotoxicity at 70.5 h is -3.9

For record "CCS(=O)(=O)c1nnc([C@@H](N)Cc2ccccc2)o1" the listed cytotoxicity at 70.5 h is 16.2

For record "CN1CCN(C(=O)c2ccc3c(c2)nc(N2CCOCC2)n3C)CC1=O" the listed cytotoxicity at 70.5 h is -5.46

For record "O=C(c1cncnc1)N1C[C@@H]2CC[C@H](Oc3cccc(F)c3)[C@@H]2C1" the listed cytotoxicity at 70.5 h is -8.85

For record "Cc1noc(C)c1CN1CCO[C@H]2CN(Cc3nccn3C)C[C@H]21" the listed cytotoxicity at 70.5 h is 0.477

For record CC(C)OCCCNC(=O)C1CCC(=O)N(C2CCCC2)C1 (centres undefined) the listed cytotoxicity at 70.5 h is 17.3

For record "COc1cc(NCc2ncc[nH]2)ccc1Br" the listed cytotoxicity at 70.5 h is -1.95

For record "N#Cc1cc(C#N)c(SCCC(=O)Nc2ccc(F)cc2)nc1N" the listed cytotoxicity at 70.5 h is -12.6

For record "Cn1ccnc1CN1CCC2(CCC(=O)N2CCN2CCCC2)CC1" the listed cytotoxicity at 70.5 h is -8.64

For record "CN(C)C(=O)c1n[nH]c2c1CCN(Cc1nccs1)C2" the listed cytotoxicity at 70.5 h is -4.93

For record Fc1ccc2c(c1)C1(CCNCC1)CC2OCC1CC1 (centres undefined) the listed cytotoxicity at 70.5 h is -7.69

For record "Cc1cnc2c(c1NCc1ccc(F)cc1)c(=O)n(C)c(=O)n2C" the listed cytotoxicity at 70.5 h is 12.7

For record "CC(=O)NCC(=O)N1CCc2c(CNc3ncccn3)cncc2C1" the listed cytotoxicity at 70.5 h is -2.19

For record "O=C(NCCN1CCOCC1)c1cc2c(s1)CCN2Cc1cccnc1" the listed cytotoxicity at 70.5 h is -3.99

For record Cc1cc(OC(F)F)c(C(=O)NCC(O)c2cccc(F)c2)s1 (centres undefined) the listed cytotoxicity at 70.5 h is 6.81

For record O=C(Nc1cccc(-c2cscn2)c1)N1CCC2(CC1)CC(O)CO2 (centres undefined) the listed cytotoxicity at 70.5 h is -11.6

For record CN(C)CCN1CCCC12CCCN(Cc1ccco1)C2 (centres undefined) the listed cytotoxicity at 70.5 h is 7.41

For record "CC(C)Cn1cnc(S(=O)(=O)NCCc2nnc3ccccn23)c1" the listed cytotoxicity at 70.5 h is 15.7

For record "Cc1cc(CN2CCC(CNS(=O)(=O)c3ccccc3Cl)CC2)c(C)o1" the listed cytotoxicity at 70.5 h is -10.4

For record Cc1ccnc(NCCNC(=O)C2CC3(CCNCC3)CN2C)c1 (centres undefined) the listed cytotoxicity at 70.5 h is -3.92

For record Cc1ccc(-c2nc(CN3CCCCC3Cn3cncn3)no2)cc1 (centres undefined) the listed cytotoxicity at 70.5 h is -7.36

For record Cn1cc(S(=O)(=O)N2CCCC(Cn3cncn3)C2)cn1 (centres undefined) the listed cytotoxicity at 70.5 h is -2.09

For record CN1CCCCC1CCC(=O)NCCCn1ncc2ccccc21 (centres undefined) the listed cytotoxicity at 70.5 h is -3.92

This collection of values is drawn from ChEMBL document CHEMBL3507680.
